All figures here come from patent US20250361295A1.

Biological target: T1, human LILRA4 (human, UniProt P59901 24-499)
T1 construct: whole, on cells; also called hLILRA4
T1 sequence (P59901 24-499): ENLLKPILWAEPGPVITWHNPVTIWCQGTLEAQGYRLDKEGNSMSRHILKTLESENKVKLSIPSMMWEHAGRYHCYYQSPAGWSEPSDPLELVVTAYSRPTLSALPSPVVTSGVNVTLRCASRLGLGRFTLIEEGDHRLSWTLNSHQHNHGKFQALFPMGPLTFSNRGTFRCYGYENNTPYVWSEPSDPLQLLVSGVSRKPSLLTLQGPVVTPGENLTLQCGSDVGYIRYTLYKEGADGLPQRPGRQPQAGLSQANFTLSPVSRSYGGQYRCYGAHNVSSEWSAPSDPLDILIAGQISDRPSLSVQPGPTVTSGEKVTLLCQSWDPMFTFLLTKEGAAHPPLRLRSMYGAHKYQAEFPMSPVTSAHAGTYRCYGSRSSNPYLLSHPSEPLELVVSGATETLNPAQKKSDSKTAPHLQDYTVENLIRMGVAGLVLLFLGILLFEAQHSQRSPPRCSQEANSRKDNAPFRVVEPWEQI
Test: FACS, 293F-hLILRA4 cells
Measured MFI by item
Write the value in MFI as a bare number.

// worked examples, MFI included
8-B3-F6-H8 (antibody, V domains shown, mouse monoclonal hybridoma antibody) VH: EVKVIESGGGLVQPGGSLKLSCAASGFDFSRYWMSWVRQAPGKGLEWIGEINPDSSAINYTPSLKDKFIISRDNAKNTLYLQMSKVRSEDTALYYCATSMTMDYWGQGTSVTVSS VL: DIVMTQSPSSMYASLGERVTITCKASQDIKSYLSWYQQKPWKSPKTLIYYATSLADGVPSRFSGSGSGQDYSLTISSLESDDTATYYCLQHGESPYTFGGGTKLEK    19.5
4-E6-E4-B12 (antibody, V domains shown, mouse monoclonal hybridoma antibody) VH: EVQLKESGAELVKPGASVKLSCKASGYTFTSHWMHWVKQRPGQGLEWIGEINPSNGRTNYNEKFTSKATLTVDQSSSTAYMQLSSLTSEDSAVYYCARGNLTTVVPFDYWGQGTALTVSS VL: DIVMTQSPSSLSASLGGKVTITCKASQDINKFIAWYQHKPGKGPRLLIHFTSTLQPGIPSRFSGSGSGRDYSFSISNLEPEDIATYFCLQYDLLLTFGGGTKLEIK    23.2
10-H9-E3-G3 (antibody, V domains shown, mouse monoclonal hybridoma antibody) VH: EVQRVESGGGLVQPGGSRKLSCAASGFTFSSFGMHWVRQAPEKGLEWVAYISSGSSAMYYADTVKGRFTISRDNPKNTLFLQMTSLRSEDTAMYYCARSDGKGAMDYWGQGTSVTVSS VL: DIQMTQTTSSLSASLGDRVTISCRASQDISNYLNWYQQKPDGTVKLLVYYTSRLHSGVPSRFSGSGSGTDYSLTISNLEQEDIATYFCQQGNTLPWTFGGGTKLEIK    20.7
43-D12-F3-G11 (antibody, V domains shown, mouse monoclonal hybridoma antibody) VH: EVQVVESGPGLVAPSQSLSITCTVSGFSLTSYGVSWVRQPPGKGLEWLGVIWADGSTNYHSALLSRLSISKDNSKSQVFLKLNSLQTDDTATYYCAKGHWDGFAYWGQGTLVAVSA VL: DIVLTQSPAIMSTSPGEKVTLTCSASSSITSSYLYWYQQKPGSSPKLWIYSTSNLASGVPARFSGSGSGTSYYLTISSMEAEDAASYFCHQWSSYPPTFGGGTKLELK    21.2

Record summary for 25-E7-A10-H6 (antibody, V domains shown, mouse monoclonal hybridoma antibody) VH: EVQLVESGGGLVQPGGSRKLSCAASGFTFSTFGMHWVRQAPEKGLEWVAYISSGSSTIYYADTVKGRFTISRDNPKNTLFLQMTSLRSEDTAMYYCARSTGTGAMDYWGQGTSVTVSS VL: DIQMTQTTSSLSASLGDRVTISCRASQDISKYLNWYQQKPDGTVKLLIYYTSRLHSGVPSRFSGSGSGTDYSLTISNLEQEDIATYFCQQGNTLPWTFGGGTKLEIK : reported MFI = 19.9
